Molecular target: mGlyT-1b (Mus musculus)
Construct: expressed in transfected cells; host or cells: Flp-in-CHO (Invitrogen Cat no R758-07), stably transfected
Sequence (P28571 1-651 isoform P28571-2): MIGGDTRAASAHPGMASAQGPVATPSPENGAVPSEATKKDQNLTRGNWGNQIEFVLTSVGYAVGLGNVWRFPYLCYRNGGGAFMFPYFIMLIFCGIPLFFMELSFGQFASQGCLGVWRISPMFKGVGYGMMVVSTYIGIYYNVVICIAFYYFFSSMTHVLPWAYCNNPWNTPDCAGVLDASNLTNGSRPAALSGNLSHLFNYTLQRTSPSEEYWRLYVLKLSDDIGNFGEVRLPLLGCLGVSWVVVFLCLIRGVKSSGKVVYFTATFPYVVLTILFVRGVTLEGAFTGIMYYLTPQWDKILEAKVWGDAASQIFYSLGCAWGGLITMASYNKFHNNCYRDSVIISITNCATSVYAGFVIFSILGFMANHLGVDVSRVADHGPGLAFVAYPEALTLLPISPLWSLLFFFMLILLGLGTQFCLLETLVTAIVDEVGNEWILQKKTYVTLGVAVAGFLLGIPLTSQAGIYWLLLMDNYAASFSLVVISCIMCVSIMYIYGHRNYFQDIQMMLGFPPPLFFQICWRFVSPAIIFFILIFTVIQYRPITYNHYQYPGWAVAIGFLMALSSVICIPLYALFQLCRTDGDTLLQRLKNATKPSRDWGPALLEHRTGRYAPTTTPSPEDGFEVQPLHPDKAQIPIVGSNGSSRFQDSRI
Assay: Glycine Uptake Inhibition Assay (mGlyT-1b)
Type: cell-based
Settings: [3H]-glycine uptake in Flp-in-CHO cells transfected with mGlyT-1b cDNA; read-out: IC50 (μM) at GlyT-1
Reported values of IC50 for individual entries
Report the value in µM with no unit label.

Before answering, review these 2 worked examples.
{"Compound Structure String": "CC(C)Sc1ccc(S(C)(=O)=O)cc1C(=O)N1CCN(c2ccc(S(C)(=O)=O)cc2F)CC1", "Display Unit": "µM", "IC50": 0.04}
{"Compound Structure String": "CC(C)Sc1ccc(S(C)(=O)=O)cc1C(=O)N1CCN(c2ncc(C(F)(F)F)cc2F)CC1", "Display Unit": "µM", "IC50": 0.03}

### Prompt Give its IC50 value. Item: "CNS(=O)(=O)c1ccc(SC(C)C)c(C(=O)N2CCN(c3ccc(C(F)(F)F)cc3)CC2)c1"
### Response 0.006

###

target: mGlyT-1b (Mus musculus); construct: expressed in transfected cells; host or cells: Flp-in-CHO (Invitrogen Cat no R758-07), stably transfected; assay: Glycine Uptake Inhibition Assay (mGlyT-1b); type: cell-based; settings: [3H]-glycine uptake in Flp-in-CHO cells transfected with mGlyT-1b cDNA; read-out: IC50 (μM) at GlyT-1
Reported Metric: IC50 (µM)
Please state the figure in µM; there is no need to write the unit.

Would you please look over these solved cases?
{"Compound Structure String": "CS(=O)(=O)c1ccc(N2CCN(C(=O)c3cc(S(C)(=O)=O)ccc3SCC(F)(F)F)CC2)c(F)c1", "Reported Value": 0.1}
{"Compound Structure String": "CC(C)Sc1ccc([N+](=O)[O-])cc1C(=O)N1CCN(c2ccc(C(F)(F)F)cc2)CC1", "Reported Value": 0.007}
{"Compound Structure String": "CS(=O)(=O)c1ccc(SCC(F)(F)F)c(C(=O)N2CCN(c3ncc(C(F)(F)F)cc3F)CC2)c1", "Reported Value": 0.07}

### Prompt // map "CCSc1ccc(S(C)(=O)=O)cc1C(=O)N1CCN(c2ncc(C(F)(F)F)cc2F)CC1" to recorded IC50 (system: mGlyT-1b (Mus musculus))
### Response 0.08

### Prompt And what about the compound "CC(C)CSc1ccc(S(C)(=O)=O)cc1C(=O)N1CCN(c2ccc(S(C)(=O)=O)cc2F)CC1" ?
### Response 0.1

### Prompt Same lookup for "CC(C)Sc1ccc(S(C)(=O)=O)cc1C(=O)N1CCN(c2ccc([N+](=O)[O-])cc2Cl)CC1" , please.
### Response 0.018

### Prompt Query "CC(=O)c1ccc(N2CCN(C(=O)c3cc(S(C)(=O)=O)ccc3SC(C)C)CC2)c(F)c1" next
### Response 0.015
